Reference for the values: ChEMBL document CHEMBL1201862

- experimental-system: UniProt:P49327
- Sequence (P49327 whole entry, the tested form may be a part): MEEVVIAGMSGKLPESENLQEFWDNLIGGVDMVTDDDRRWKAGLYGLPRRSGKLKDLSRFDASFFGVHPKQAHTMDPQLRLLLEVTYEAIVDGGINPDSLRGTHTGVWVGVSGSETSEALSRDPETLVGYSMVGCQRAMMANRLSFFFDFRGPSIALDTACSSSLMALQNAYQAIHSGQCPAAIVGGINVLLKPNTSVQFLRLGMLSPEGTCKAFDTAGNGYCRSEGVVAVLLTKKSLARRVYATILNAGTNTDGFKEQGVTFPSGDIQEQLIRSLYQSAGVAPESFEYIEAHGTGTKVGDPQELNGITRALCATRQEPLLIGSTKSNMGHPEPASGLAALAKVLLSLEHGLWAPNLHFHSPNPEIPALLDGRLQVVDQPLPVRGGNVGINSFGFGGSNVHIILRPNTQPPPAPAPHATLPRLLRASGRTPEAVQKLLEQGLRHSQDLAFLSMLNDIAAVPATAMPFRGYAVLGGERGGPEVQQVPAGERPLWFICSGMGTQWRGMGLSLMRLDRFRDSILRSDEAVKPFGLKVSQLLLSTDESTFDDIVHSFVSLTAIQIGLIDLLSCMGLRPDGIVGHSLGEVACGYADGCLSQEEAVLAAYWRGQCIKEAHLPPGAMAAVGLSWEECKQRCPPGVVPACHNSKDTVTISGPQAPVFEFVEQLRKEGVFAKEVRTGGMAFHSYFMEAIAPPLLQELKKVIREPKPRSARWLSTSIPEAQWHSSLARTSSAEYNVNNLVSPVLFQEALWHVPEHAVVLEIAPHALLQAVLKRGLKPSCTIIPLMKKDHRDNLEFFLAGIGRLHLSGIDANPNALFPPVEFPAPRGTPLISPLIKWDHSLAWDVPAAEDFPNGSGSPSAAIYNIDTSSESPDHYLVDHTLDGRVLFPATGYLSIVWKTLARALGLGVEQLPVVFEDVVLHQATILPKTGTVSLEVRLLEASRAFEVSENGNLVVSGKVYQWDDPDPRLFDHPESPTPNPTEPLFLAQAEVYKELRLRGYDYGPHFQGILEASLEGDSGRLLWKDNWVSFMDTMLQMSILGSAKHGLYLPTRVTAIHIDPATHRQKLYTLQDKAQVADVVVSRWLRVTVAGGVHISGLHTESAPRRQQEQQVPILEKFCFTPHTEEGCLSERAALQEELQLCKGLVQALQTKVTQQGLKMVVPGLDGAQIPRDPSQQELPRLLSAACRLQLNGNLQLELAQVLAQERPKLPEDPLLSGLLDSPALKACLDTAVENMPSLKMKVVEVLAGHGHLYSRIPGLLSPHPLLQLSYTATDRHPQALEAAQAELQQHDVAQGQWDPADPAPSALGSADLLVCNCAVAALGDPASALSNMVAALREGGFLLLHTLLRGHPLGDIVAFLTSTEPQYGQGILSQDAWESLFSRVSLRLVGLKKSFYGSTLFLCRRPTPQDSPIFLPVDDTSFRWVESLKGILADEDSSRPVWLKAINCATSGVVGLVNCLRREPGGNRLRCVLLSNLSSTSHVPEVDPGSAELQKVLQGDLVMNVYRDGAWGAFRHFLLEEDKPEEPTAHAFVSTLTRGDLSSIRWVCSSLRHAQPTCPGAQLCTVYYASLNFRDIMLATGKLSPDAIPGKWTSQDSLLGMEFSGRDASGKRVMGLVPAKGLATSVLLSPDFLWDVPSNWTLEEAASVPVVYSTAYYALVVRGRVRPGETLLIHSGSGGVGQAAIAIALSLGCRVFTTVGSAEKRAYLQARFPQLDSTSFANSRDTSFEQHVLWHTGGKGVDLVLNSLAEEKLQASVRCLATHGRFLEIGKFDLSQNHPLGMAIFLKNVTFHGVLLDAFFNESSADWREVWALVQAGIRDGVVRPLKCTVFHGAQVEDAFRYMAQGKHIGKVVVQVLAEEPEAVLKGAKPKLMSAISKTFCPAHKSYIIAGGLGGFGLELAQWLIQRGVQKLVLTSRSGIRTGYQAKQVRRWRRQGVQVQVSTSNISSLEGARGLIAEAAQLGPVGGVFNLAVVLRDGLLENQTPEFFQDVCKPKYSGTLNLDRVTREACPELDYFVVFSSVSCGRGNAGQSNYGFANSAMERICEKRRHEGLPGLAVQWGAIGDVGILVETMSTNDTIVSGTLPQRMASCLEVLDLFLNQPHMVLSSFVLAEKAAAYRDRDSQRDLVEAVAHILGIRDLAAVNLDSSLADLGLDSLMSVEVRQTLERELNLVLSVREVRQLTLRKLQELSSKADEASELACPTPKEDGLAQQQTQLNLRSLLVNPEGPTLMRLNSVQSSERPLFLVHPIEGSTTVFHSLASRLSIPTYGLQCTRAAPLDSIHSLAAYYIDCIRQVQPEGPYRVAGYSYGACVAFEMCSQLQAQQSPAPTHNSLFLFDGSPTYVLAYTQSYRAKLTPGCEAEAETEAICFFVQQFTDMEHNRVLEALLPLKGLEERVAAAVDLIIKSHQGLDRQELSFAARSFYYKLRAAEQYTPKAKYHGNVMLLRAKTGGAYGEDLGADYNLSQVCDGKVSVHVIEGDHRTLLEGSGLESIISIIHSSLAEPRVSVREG
- assay-explanation: FAS thioesterase domain inhibitors, dose response, biochemical, endpoint fluorescence intensity, uHTS hits (AID 624327);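 note: fluorescence from hydrolysis of an O-methyl fluorescein acyl ester substrate by the enzyme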
- Format: functional
Activity calls are given as the source filed them.
quantity: IC50

>>> endpoint_value("O=C(CN(c1ccc(Cl)cc1)S(=O)(=O)c1ccccc1)N/N=C/c1ccco1")
"10.8 µM (active)"
>>> endpoint_value("N#Cc1ccc(CSc2ccc(S(=O)(=O)N3CCCC3)cn2)cc1")
"8.8 µM (active)"
>>> endpoint_value("COc1cccc(NC(=O)COc2c(F)c(F)c(C(F)(F)F)c(F)c2F)c1")
"12.2 µM (active)"
>>> endpoint_value("CCc1ccc(S(=O)(=O)c2nnn3c2nc(N2CCOCC2)c2ccccc23)cc1")
"14.3 µM (active)"
>>> endpoint_value("O=[N+]([O-])c1c(Nc2ccc(O)cc2)cc(Cl)c2nonc12")
"5.26 µM (active)"
>>> endpoint_value("C=CCN1C(=O)/C(=C/c2ccc(OC(C)=O)c(OCC)c2[N+](=O)[O-])SC1=S")
"5.92 µM (active)"

* * *

// Cytochrome P450 2D6 (Homo sapiens, UniProt P10635) AC50 records
quantity: AC50

>>> endpoint_value("CCOc1ccc(NC(=O)N(C2CCCCC2)C(C)c2ccncc2)cc1 (centres undefined)")
"17.8 µM (inconclusive)"
>>> endpoint_value("Cc1nc2sccc2c(=O)n1-c1cccc(Cl)c1")
"12.6 µM (inconclusive)"
>>> endpoint_value("COc1ncc2nc(CCc3ccccc3)c(=O)n(C)c2n1")
"20 µM (inconclusive)"
>>> endpoint_value("Cc1cccc(N2CCN(C(=O)CCCn3c(=S)[nH]c4cc5c(cc4c3=O)OCO5)CC2)c1C")
"10 µM (inconclusive)"

* * *

- experimental-system: Heat shock factor protein 1 (Mus musculus, UniProt P38532)
- Sequence (P38532 whole entry): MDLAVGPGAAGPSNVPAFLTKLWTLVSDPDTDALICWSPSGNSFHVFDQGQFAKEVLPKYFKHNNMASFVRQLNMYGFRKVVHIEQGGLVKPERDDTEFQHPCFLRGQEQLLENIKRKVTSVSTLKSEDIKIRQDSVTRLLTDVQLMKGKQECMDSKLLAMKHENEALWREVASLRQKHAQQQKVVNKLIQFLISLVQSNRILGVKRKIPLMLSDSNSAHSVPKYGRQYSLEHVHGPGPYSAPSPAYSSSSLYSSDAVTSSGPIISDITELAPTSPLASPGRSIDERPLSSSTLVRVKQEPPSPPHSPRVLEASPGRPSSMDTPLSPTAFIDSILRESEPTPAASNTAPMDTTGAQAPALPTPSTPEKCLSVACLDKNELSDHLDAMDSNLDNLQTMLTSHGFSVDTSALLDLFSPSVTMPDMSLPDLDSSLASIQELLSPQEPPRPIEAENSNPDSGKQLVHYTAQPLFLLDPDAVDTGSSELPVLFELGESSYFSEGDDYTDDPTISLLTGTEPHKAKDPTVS
- assay-explanation: inhibition of MG132-induced HSE-luciferase signal, confirmation, cell-based, NIH3T3, luminescence, dose retest (AID 2382);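 note: NIH3T3 fibroblasts with HSF1-driven luciferase reporter stressed by proteasome inhibitor MG132; luminescence from HSF1-driven luciferase expression after 8 hours of MG132 stress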
- Assay type: functional
Calls of active or inactive are those of the source.
Entries annotated with measured EC50
quantity: EC50

>>> endpoint_value("O=C1CCC(=O)N1CNc1ccccn1")
"> 195 µM (not active)"
>>> endpoint_value("O=C(O)CCN1C(=O)/C(=C/c2nc3ccccc3[nH]2)SC1=S")
"7.78 µM (active)"
>>> endpoint_value("O=C(NCc1ccc2c(c1)OCO2)c1cc2c(s1)CS(=O)(=O)C2")
"> 195 µM (not active)"
>>> endpoint_value("CCOC(=O)c1c(NC(=O)CNC2CCCc3ccccc32)sc(C(N)=O)c1C (stereo unspecified)")
"25 µM (active)"
>>> endpoint_value("COc1cccc(CN(C)CC(=O)Nc2cccc(C(F)(F)F)c2)c1OC")
"> 195 µM (not active)"
>>> endpoint_value("C=C1SC(Nc2c(C)cc(C)cc2C)=NC12CCCCC2")
"> 195 µM (not active)"
